Measured growth, listed per entry for reference.
system: DU-145 prostate; test: NCI-60 one-dose screen, 48 h (100 = growth as untreated, 0 = no growth, -100 = all killed); settings: 10 µM unless noted
The panel holds about 83,000 compounds, 20% with a hit somewhere; the sample as a whole holds those more often.
ENDPOINT LABEL: growth (%)

[
  {
    "COMPOUND": "CC[C@H](CC[C@@H](C)[C@H]1CC[C@H]2[C@@H]3CC=C4C[C@@H](OCCc5nn[nH]n5)CC[C@]4(C)[C@H]3CC[C@]12C)C(C)C",
    "RECORDED VALUE": 101
  },
  {
    "COMPOUND": "COc1ccc(/C=N/C2=C(C#N)C(c3ccccc3[N+](=O)[O-])c3ccc4ccccc4c3O2)cc1 (centres undefined)",
    "RECORDED VALUE": 100
  },
  {
    "COMPOUND": "CC(C)Sc1nc(NN)c(C#N)c(-c2ccccc2)n1",
    "RECORDED VALUE": 108
  },
  {
    "COMPOUND": "C[C@]12C[C@H]1CC[C@]1(C)[C@@H]2CC[C@@]23C[C@H](CC[C@H]21)[C@@](O)(CO)C3",
    "RECORDED VALUE": 104
  }
]

* * *

Listed below: growth values for each entry.
system: BT-549 breast; experiment: NCI-60 one-dose screen, 48 h (100 = growth as untreated, 0 = no growth, -100 = all killed); details: 10 µM unless noted
About 83,000 compounds went through this panel and 20% of them were active in at least one assay; those are over-represented in the sample as a whole.

[
  {
    "MOLECULE": "CCCc1cc2c(cc1Br)OCO2",
    "UNITS OF MEASURE": "%",
    "growth": 82.7
  },
  {
    "MOLECULE": "COc1cnccc1-c1nc2ccc3[nH]ncc3c2c2c1CCCC2",
    "UNITS OF MEASURE": "%",
    "growth": 43.3
  },
  {
    "MOLECULE": "C[C@@H]1CN(Cc2ccc(/C=C/c3n[nH]c4ccc5nc(-c6cn[nH]c6C(F)(F)F)c6c(c5c34)CCCC6)cc2)C[C@H](C)O1",
    "UNITS OF MEASURE": "%",
    "growth": 39.6
  },
  {
    "MOLECULE": "COc1ccc(-c2c[nH]c(C(=O)O)c2-c2cc(OC)c3c(c2OC)OCO3)cc1",
    "UNITS OF MEASURE": "%",
    "growth": 103
  },
  {
    "MOLECULE": "N/C(=N\\N=C\\c1cc2ccccc2[nH]1)N/N=C/c1cc2ccccc2[nH]1",
    "UNITS OF MEASURE": "%",
    "growth": 98.7
  },
  {
    "MOLECULE": "C#CC(=O)Nc1cccc2c1cc(C)n2-c1nc2c(c(NCc3ccccc3)n1)CCCC2",
    "UNITS OF MEASURE": "%",
    "growth": -47.3
  },
  {
    "MOLECULE": "CCCCCCOc1ccc(/C=N/Nc2cc(C)nc3ccc(Br)cc23)cc1",
    "UNITS OF MEASURE": "%",
    "growth": 106
  },
  {
    "MOLECULE": "CCCCCCc1nc2nc(Cl)c(Cl)nc2[nH]1",
    "UNITS OF MEASURE": "%",
    "growth": 66.5
  },
  {
    "MOLECULE": "COc1cc(C2CC(c3cccc(Nc4ccncc4)c3)=NN2c2ccccc2)cc(OC)c1OC (stereo not given)",
    "UNITS OF MEASURE": "%",
    "growth": 59.4
  },
  {
    "MOLECULE": "COc1cc(-c2cc(=O)oc3cc(O)ccc23)cc(OC)c1OC",
    "UNITS OF MEASURE": "%",
    "growth": 97.4
  }
]
